measured-parameter: pIC50
Note: pIC50 values are expressed as the negative base-10 logarithm of concentration in M.

So the reported pIC50 for C[C@@H](Nc1cc(Cl)nc2c1cnn2[C@@H]1O[C@H](COP(=O)(O)CP(=O)(O)O)[C@@H](O)[C@H]1O)c1ccc(S(F)(F)(F)(F)F)cc1 , on UniProt P21589, turned out to be 7.82

The reported pIC50 value, UniProt P21589, for O=P(O)(O)CP(=O)(O)OC[C@H]1C[C@@H](c2ccc3c(N[C@@H]4CCc5cc(F)c(F)cc54)nc(Cl)nn23)[C@H](O)[C@@H]1O reads 8.39

Tested system UniProt P21589; pIC50 recorded for O=P(O)(O)CP(=O)(O)OC[C@H]1O[C@@H](n2ncc3c(N[C@@H]4CCc5cc(F)c(F)cc54)cc(Cl)nc32)[C@H](O)[C@@H]1O was 9.59

Record O=P(O)(O)CP(=O)(O)OC[C@H]1O[C@@H](n2ncc3c(N[C@@H]4CCc5cc(F)cc(F)c54)cc(Cl)nc32)[C@H](O)[C@@H]1O ; system UniProt P21589; pIC50 = 9.68

Recorded pIC50 for O=P(O)(O)CP(=O)(O)OC[C@H]1C[C@@H](c2ccc3c(N[C@H]4CCc5cc(F)c(F)cc54)nc(Cl)nn23)[C@H](O)[C@@H]1O on UniProt P21589 was 7.31
